The entries below come with measured MFC values attached.
Test system: Cryptococcus neoformans
Assay: Antifungal activity against Cryptococcus neoformans ATCC 66031 after 72 hrs by CLSI method
Assay type: functional, organism-based
Settings: ATCC 66031, 72 h
Express your answer in µM, writing the number without its unit.

The examples below pair each entry with its known result.
INSERT INTO results (compound, tgt, observed_value) VALUES
  ('C[C@@H]1[C@H](O)[C@@H](C)/C=C/C=C/C=C/C=C/C=C/C=C/C=C/[C@H](O[C@@H]2O[C@H](C)[C@@H](O)[C@H](N)[C@@H]2O)C[C@@H]2O[C@](O)(C[C@@H](O)C[C@@H](O)[C@H](O)CC[C@@H](O)C[C@@H](O)CC(=O)O[C@H]1C)C[C@H](O)[C@H]2C(=O)O', 'Cryptococcus neoformans', 0.34),
  ('CCCCCCCCCC#CCCCCC(=O)O', 'Cryptococcus neoformans', 99.1),
  ('C=CCCCCCCCCC(=O)O', 'Cryptococcus neoformans', 271),
  ('CC[C@H](C)C[C@H](C)CCCCCCCCC(=O)N[C@H]1C[C@@H](O)[C@@H](NCCN)NC(=O)[C@@H]2[C@@H](O)CCN2C(=O)[C@H]([C@H](O)CCN)NC(=O)[C@H]([C@H](O)[C@@H](O)c2ccc(O)cc2)NC(=O)[C@@H]2C[C@@H](O)CN2C(=O)[C@H]([C@@H](C)O)NC1=O', 'Cryptococcus neoformans', 1),
  ('CC(=O)N1CCN(c2ccc(OCC3COC(Cn4ccnc4)(c4ccc(Cl)cc4Cl)O3)cc2)CC1 (stereo unspecified)', 'Cryptococcus neoformans', 0.59);

The record that follows has no MFC shown yet.
// recorded MFC for `CN(C/C=C/C#CC(C)(C)C)Cc1cccc2ccccc12` : 8.6

###

System: Aspergillus fumigatus
Assay: Antifungal activity against Aspergillus fumigatus ATCC 90906 after 48 h by CLSI method
Conditions: ATCC 90906, 48 h
The entries below come with measured IC50 values attached.
Express your answer in nM, writing the number without its unit.

The examples below pair each entry with its known result.
INSERT INTO assay_data (compound, observed_value) VALUES
  ('CC[C@H](C)C[C@H](C)CCCCCCCCC(=O)N[C@H]1C[C@@H](O)[C@@H](NCCN)NC(=O)[C@@H]2[C@@H](O)CCN2C(=O)[C@H]([C@H](O)CCN)NC(=O)[C@H]([C@H](O)[C@@H](O)c2ccc(O)cc2)NC(=O)[C@@H]2C[C@@H](O)CN2C(=O)[C@H]([C@@H](C)O)NC1=O [CASPOFUNGIN]', 200),
  ('CCCCCC#CCC#CCC#CCC#CCCCC(=O)O', 13300),
  ('CCCCCCCCCC#CCCCCC(=O)O', 166000),
  ('C[C@@H]1[C@H](O)[C@@H](C)/C=C/C=C/C=C/C=C/C=C/C=C/C=C/[C@H](O[C@@H]2O[C@H](C)[C@@H](O)[C@H](N)[C@@H]2O)C[C@@H]2O[C@](O)(C[C@@H](O)C[C@@H](O)[C@H](O)CC[C@@H](O)C[C@@H](O)CC(=O)O[C@H]1C)C[C@H](O)[C@H]2C(=O)O [AMPHOTERICIN B]', 900),
  ('CCCCCCCCCCCCCC#CCCCCC(=O)O [6-ICOSYNOIC ACID]', 81000);

// recorded IC50 for CN(C/C=C/C#CC(C)(C)C)Cc1cccc2ccccc12 [TERBINAFINE] : 1000

// recorded IC50 for CC(=O)N1CCN(c2ccc(OCC3COC(Cn4ccnc4)(c4ccc(Cl)cc4Cl)O3)cc2)CC1 (stereo not drawn) [KETOCONAZOLE] : 3200

// recorded IC50 for CCCCCCCCCCCCC#CCCCCC(=O)O [6-NONADECYNOIC ACID] : 1400
